This collection of values is drawn from paper PMC9027532.

procedure text: Pharmacokinetic study in rats (plasma, LC-MS/MS, NCA)
test parameters: male, Sprague-Dawley, rat, plasma, iv, 1 mg/kg, MRT, rats, single i.v. 1 mg/kg
measurement name: MRT (min)
Numbers only, in min.

Item CC(=O)Nc1ccc(NC(=O)c2ccc(C(C)=O)o2)cc1 [Compound 25a] : provide MRT
36

* * *

procedure text: Tissue distribution study in rats
Assay type: in vivo, SD rats
test parameters: male, Sprague-Dawley, rat, brain, single oral dose 100 mg/kg
measurement name: half-life (h)
Numbers only, in h.

Recall and state the measured half-life for CC(=O)Nc1ccc(NC(=O)c2ccc(C(C)=O)o2)cc1 [Compound 25a] .
6.1
